- Tested on: HCT116 cells
- experiment-summary: SRB cytotoxicity assay, HCT116
- Format: cell-based, human
- measurement-parameters: Homo sapiens, HCT-116, read-out: IC50 against HCT116
Provide the reported IC50 of each item.
Answers are plain numbers, in µM.

Items follow; give IC50 for each.
1. COC1=CC(=NNC(=N)N)C[C@@H](C)[C@]12Oc1c(Cl)c(OC)cc(OC)c1C2=O [Compound 7]
2. COc1cc(OC)c2c(c1Cl)OC1(C2=O)C(OCc2ccccc2)=CC(=NNC(N)=O)CC1C (stereo not shown) [Compound 9]

85.6
10.5

Items follow; give IC50 for each.
1. COC1=CC(=O)C[C@@H](C)[C@]12Oc1c(Cl)c(OC)cc(OC)c1C2=O [Compound 1, Griseofulvin]
2. COC1=CC(=NNC(=O)c2ccncc2)C[C@@H](C)[C@]12Oc1c(Cl)c(OC)cc(OC)c1C2=O (mixture of isomers) [Compound 8]

35.5
39.8
